# protocol_text: Metabolic stability in mouse hepatic microsome
# Assay type: in vitro ADME
# details: male, mouse, liver microsomes, pH 7.4; 0.5 mg protein/mL, 1 uM, 30 minutes, with NADPH; read-out: Hepatic Microsome CLh, int (Mouse) In the presence of NADPH
Positions of bridges follow the written chain, without caps; N, C: chain ends. Non-standard residues stand in square brackets, D forms with d. Residues, ends and D or L forms follow the SMILES beside them. *: point of attachment. NMeF = CN[C@@H](Cc1ccccc1)C(=O)O; NMeI = CC[C@H](C)[C@H](NC)C(=O)O; NMeL = CN[C@@H](CC(C)C)C(=O)O; NMeA = CN[C@@H](C)C(=O)O; Piperidide = C1CCN(*)CC1; Sar = CNCC(=O)O; tBu = CC(C)(C)*
reported_metric: microsomal CLint at 1 uM (µL/min/mg)

• CC[C@H](C)[C@H]1C(=O)N[C@H](C(=O)N2CCCCC2)CSCC(=O)N(C)[C@@H](C)C(=O)N(C)[C@@H](Cc2ccccc2)C(=O)N(C)[C@@H](CC(C)C)C(=O)N[C@@H]([C@@H](C)O)C(=O)N(C)CC(=O)N(C)[C@@H](CC(C)C)C(=O)N[C@@H](COC(C)(C)C)C(=O)N1C [Compound P-109] ({CH2CO}-[NMeA][NMeF][NMeL]T[Sar][NMeL]S(tBu)[NMeI]C-Piperidide; thioether N-9) = 57.4
• CC[C@H](C)[C@H]1C(=O)N[C@H](C(=O)N2CCCCC2)CSCC(=O)N[C@@H](Cc2ccccc2)C(=O)N(C)[C@@H](CC(C)C)C(=O)N[C@@H]([C@@H](C)O)C(=O)N(C)CC(=O)N(C)[C@@H](CC(C)C)C(=O)N[C@@H](COC(C)(C)C)C(=O)N1C [Compound P-107] ({CH2CO}-F[NMeL]T[Sar][NMeL]S(tBu)[NMeI]C-Piperidide; thioether N-8) = 111
• CC(C)C[C@H]1C(=O)N[C@@H](COC(C)(C)C)C(=O)N[C@H](C(=O)N2CCCCC2)CSCC(=O)N(C)[C@@H](C)C(=O)N(C)[C@@H](Cc2ccccc2)C(=O)N(C)[C@@H](CC(C)C)C(=O)N[C@@H]([C@@H](C)O)C(=O)N(C)CC(=O)N1C [Compound P-102] ({CH2CO}-[NMeA][NMeF][NMeL]T[Sar][NMeL]S(tBu)C-Piperidide; thioether N-8) = 55.1

###

# protocol_text: Metabolic stability in human hepatic microsome
# Type: in vitro ADME
# details: human, microsomes, pH 7.4, CL NADPH(+)
Starred links: 1 amine or outer side, 2 acyl side, 3 side chain; linkers in the order of their positions; H or OH if unused. Positions of bridges follow the written chain, without caps; N, C: chain ends. Non-standard residues stand in square brackets, D forms with d. Residues, ends and D or L forms follow the SMILES beside them. *: point of attachment. NMeF = CN[C@@H](Cc1ccccc1)C(=O)O; NMeI = CC[C@H](C)[C@H](NC)C(=O)O; NMeβAla = CN(CCC(=O)[*:2])[*:1]; NMeL = CN[C@@H](CC(C)C)C(=O)O; Piperidide = C1CCN(*)CC1
reported_metric: microsomal CLint at 1 uM (µL/min/mg)

* CC[C@H](C)[C@H]1C(=O)N(C)[C@@H](Cc2ccccc2)C(=O)N[C@@H](CC(C)C)C(=O)N[C@H](C(=O)N2CCCCC2)CC(=O)N(C)CCC(=O)N(C)[C@@H](CC(C)C)C(=O)N[C@@H]([C@@H](C)O)C(=O)N(C)[C@@H](Cc2ccccc2)C(=O)N(C)[C@@H](CC(C)C)C(=O)N[C@@H](C)C(=O)N(C)[C@@H](CC(C)C)C(=O)N1C [DP-104] ([NMeβAla][NMeL]T[NMeF][NMeL]A[NMeL][NMeI][NMeF]LD-Piperidide; lactam N-11) | 29
